- Tested on: doxorubicin-resistant hepatocellular carcinoma cell line HepG2/ADM
- Experiment: MTT cell growth inhibition, HepG2/ADM
- Type: cell-based, human
- Test Settings: MTT assay, 72 h, read-out: IC50, growth of tumor cell line
Parameter Measured: pIC50
When answering, recall that pIC50 equals minus log10 of the concentration in mol/L, and write that number alone.

Compound	pIC50
CCC1=CC2CN(C1)Cc1c([nH]c3ccccc13)C(C(=O)OC)(c1cc3c(cc1OC)N(C)C1C(O)(C(=O)NNC(=O)C4CCCN4C(=O)CNC(=O)OCc4ccccc4)C(O)C4(CC)C=CCN5CCC31C54)C2 (stereo not shown) [BX-CCRB, Z-GP-NHNH-Vinorelbine]	6.36
CCC1(O)CC2CN(CCc3c([nH]c4ccccc34)C(C(=O)OC)(c3cc4c(cc3OC)N(C)C3C(O)(C(=O)NNC(=O)C5CCCN5C(=O)CNC(=O)OCc5ccccc5)C(O)C5(CC)C=CCN6CCC43C65)C2)C1 (stereo not shown) [BX-CCJ, Z-GP-NHNH-Vinblastine]	6.83
CCC12C=CCN3CCC4(c5cc(C6(C(=O)OC)CC7CC(C(C)(F)F)CN(Cc8c6[nH]c6ccccc86)C7)c(OC)cc5N(C)C4C(O)(C(=O)NNC(=O)C4CCCN4C(=O)CNC(=O)OCc4ccccc4)C1O)C32 (stereo not shown) [BX-CCFN, Z-GP-NHNH-Vinflunine]	6.22

Attention now turns to another entry.
Tested on doxorubicin-resistant hepatocellular carcinoma cell line HepG2/ADM, the item CCC1(O)CC2CN(CCc3c([nH]c4ccccc34)C(C(=O)OC)(c3cc4c(cc3OC)N(C=O)C3C(O)(C(=O)NNC(=O)C5CCCN5C(=O)CNC(=O)OCc5ccccc5)C(O)C5(CC)C=CCN6CCC43C65)C2)C1 (stereo not shown) [BX-CCXJ, Z-GP-NHNH-Vincristine] showed pIC50 equal to 6.87
